# STUDY TARGET: T1, Epstein-Barr virus BHRF1 a.a. 1-161 with C-terminal avi-6his tag (Epstein-Barr virus)
# T1 construct: also called EBV BHRF1; BHRF1-biotin
# T1 chain: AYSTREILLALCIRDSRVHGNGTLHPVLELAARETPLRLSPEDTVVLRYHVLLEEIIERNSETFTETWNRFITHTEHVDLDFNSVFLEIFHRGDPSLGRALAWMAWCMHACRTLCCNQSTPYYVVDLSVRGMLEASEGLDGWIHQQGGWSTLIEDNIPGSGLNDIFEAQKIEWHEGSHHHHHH
# PROTOCOL TEXT: yeast display library, FACS sort at 100 nM BHRF1, deep sequencing
Listed here are binders together with their documented Log2 enrichment ratio.

{"BINDER": "Index 02 (designed binder) GKSLLGIALEALEEAKRDLEKAKKQMEEMLKKKWKFDTTRDLKARASAEWIAAALKAIGDRFNAKLLIELGLDELFNKGLITQDIKEDIKRRAEEIFEKIERLIKQAIKDKDRFEKLG", "TEST RESULT": "3.92 log2"}
{"BINDER": "Index 41 (designed binder) GEQEDKVKERAKRGALERAREMFEKMRKAIYLAELYINNDEGKTKLTDRWIAFALMMIGDIFNIALEARLEALKLVLKGLRSQEDAEKVKKLAEEAEREAAKRAAKLGDKMDEKEHEG", "TEST RESULT": "-2.17 log2"}
{"BINDER": "Index 48 (designed binder) GEKGKEKAQKFRDIIKDILEEAIRLAKDLAEDAKKFDLKLEKLLEATLKWIAAALMAIGDLFNFKDLAEKEVRERHDRGEISSDRRDKYEKEAREGADEAAKELSKLAKIAEKKILEG", "TEST RESULT": "-2.8 log2"}
{"BINDER": "Index 46 (designed binder) GRDGERVVKWAKNQHENTVDEAKDKMDNQEDEMRKKNADDEKLRKETHKWIAFALEAIGDVFNDAMQAFELLERFKKFGQQEQKKLDEFKEKVERLAREASRKLTYLGKRFALDIESG", "TEST RESULT": "-3.41 log2"}

QUERY: # Log2 enrichment ratio lookup, item Index 49 (designed binder) GWSKDWVLEWLREKLEEIDREALWKFILIWIEKMLGVDDDEQRRKDAAKWIAGSLEAIGDIFNAMMWAKRLLEWLEKANLVRREELEKAKQKAEELAKKAALRAAIYSKIAEEWLWKG
RESULT: -2.7 log2

QUERY: Input Index 73 (designed binder) GKDLDEIIDEARKEMDDDADDGKKKAEKLLKLHAGTNHSQDDFNEAHRRWIAVALEEIGDLFNAALRAWRKIEEEIRKNQRRKEEAEKAKEKVSKEYERASRKAAELGKEFEERVEQG
RESULT: -3.14 log2

QUERY: Input Index 01 (designed binder) GKRLEETVEETERRLREALREVYLLILLLAEEAKKKDLKEQNRHEYVFKWIAFMLMAIGDIFNIAEESKRRLDLFAKWGLHDRNKIDEAKKKIDKLALEAIERAKKYGDWFLNELDKG
RESULT: 4.02 log2

QUERY: Input Index 62 (designed binder) GKLGEELREDAEKKGEEDMRRFERRIREIKRKLKFGYDFEQRKREATHKWIAFALEMIGDAFNFAQKLERALELFKKWNIYSEDDLRELKKRFEEAKEKLKKFADRIRDEGLKAVLLG
RESULT: -3.21 log2

QUERY: Input Index 60 (designed binder) GRQEDEIKDEATKRALEILQKLEQKVRKAKKFAKYGLLLQRWWAWITKVWIAAALDAIGDAFNLGEELKRILEELRRRGLSSEEKAQEIKNWIEWLEKWVAIMAKLFGEELEKQFKQG
RESULT: -2.91 log2

QUERY: Input Index 58 (designed binder) GEKAKKLEEYAREEIERALREGGDLMEEEREFGEKTELTTEWKHRAMAYWIAAALMIIGDGFNALQFIEEEGRKFIRKGEFARQKIEEHKERAKERLEKALKQAKKRGDELDRFARLG
RESULT: -2.36 log2

QUERY: Input Index 04 (designed binder) GLLAEEGREQAEERLREARKKAEKAGDKIKDLAKYGQDSDDEKKKFMLKWIAAQLMVIGDMFNHAMEALWELLRRLKNNKISWDAFLKAKEEIEREEKEAARDSREKGREAAKMIDQG
RESULT: 2.11 log2
